All figures here come from the supplement of paper PMC6555819.

System: PPARg:RXRa 90nM:30nM, anti-RXR (NR concentration 90 nM, RXRa partner concentration 30 nM)
measurement_protocol: PBM binding z-score (relative to random genomic background probes); higher = stronger binding; sequences stand for … in GC…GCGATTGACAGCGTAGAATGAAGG
Each record here notes measured PBM binding z-score.
# print the numeric value only

Here are 8 sequences together with their reported answers.
construct_sequence=TCAGACAGGTGAGGGTAACTCAGGTACGCAGTCG readout_name="PBM binding z-score" numeric_value=2.23
construct_sequence=CCTAGCAGGCCAATCTGGGTCAGTCAAGGCTTGA readout_name="PBM binding z-score" numeric_value=0.114
construct_sequence=CCAACTGGGCCAAGGTCATTGATCAGTCAAAGCA readout_name="PBM binding z-score" numeric_value=3.3
construct_sequence=GCTTACTGGTCAAAGGTTATAGCATGAATAGAAT readout_name="PBM binding z-score" numeric_value=7.95
construct_sequence=AATCGGAGGACAAAGGTCAGAGCTACGCCAGTGA readout_name="PBM binding z-score" numeric_value=7.59
construct_sequence=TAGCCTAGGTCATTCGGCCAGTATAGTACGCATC readout_name="PBM binding z-score" numeric_value=1.55
construct_sequence=CCTAGTTGGTCAAGGTCACACACGCTATAGGTAC readout_name="PBM binding z-score" numeric_value=3.2
construct_sequence=ATCTCTAGGCAACCAAGTTCAGTGAATGCCGAAC readout_name="PBM binding z-score" numeric_value=0.0136

Reported PBM binding z-score for AGAACGAGGGCACGCTCAGTTGATAGCAGAGTAG : what is it?
0.796

Reported PBM binding z-score for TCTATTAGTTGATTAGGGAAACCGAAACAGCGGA : what is it?
3.2

Reported PBM binding z-score for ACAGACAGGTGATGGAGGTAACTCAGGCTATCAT : what is it?
-0.291

Reported PBM binding z-score for CGTCAAAGTTCAACGAAGGTAACGTAAAGCACGC : what is it?
4.07

Reported PBM binding z-score for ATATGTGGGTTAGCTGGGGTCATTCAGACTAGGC : what is it?
4.19

Reported PBM binding z-score for CCTCAAAGTTCAAGGTAACGTAACAGAAAGCAGC : what is it?
2.22

Reported PBM binding z-score for GGAGCGAGGGCAAAGTTGATAGCATCTGTCGACG : what is it?
3.6

Reported PBM binding z-score for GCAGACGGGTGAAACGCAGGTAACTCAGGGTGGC : what is it?
-0.536

Reported PBM binding z-score for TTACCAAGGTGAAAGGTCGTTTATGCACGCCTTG : what is it?
8.46

Reported PBM binding z-score for TACCCTAGGTCAGATCGGGCCAGTATACGCTATA : what is it?
1.33

Reported PBM binding z-score for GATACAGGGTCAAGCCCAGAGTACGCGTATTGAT : what is it?
4.41

Reported PBM binding z-score for CCTACTGGGCCAAAGATCATTGATTCCAATGCTC : what is it?
7.74

Reported PBM binding z-score for CAGCCTAGGTCAGGCCCAGTATAGGAGGAACGTT : what is it?
0.386

---

Each record here notes measured PBM binding z-score.
Test system: PPARg:RXRa 30nM:10nM, anti-RXR (NR concentration 30 nM, RXRa partner concentration 10 nM)
measurement_protocol: PBM binding z-score (relative to random genomic background probes); higher = stronger binding; sequences stand for … in GC…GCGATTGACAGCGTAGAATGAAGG
# print the numeric value only

Here are 5 sequences together with their reported answers.
construct_sequence=CCTAGGAGGCCAATCTGGGTCACTCAAGGCTTGA numeric_value=0.067
construct_sequence=CCTTTCGGGTCACTGACAGGTTATAGCATTTGGA numeric_value=1.43
construct_sequence=TGTCGAAGTTCAAAGGTAACGTAAGTATCCACAC numeric_value=2.95
construct_sequence=ACTACAGGGTCATCGTAGGCCAGAGTACGCACAG numeric_value=2.32
construct_sequence=GCTATAAGTTGAAAGGGCAACCGAATGATTCTCG numeric_value=1.46

Would you kindly look at the next entry?
Reported PBM binding z-score for CGAACTAGGTCAATGACAGGACAGTGAATAGTAA : what is it?
3.52
